# protocol summary: Lipophilicity (logD7.4) determination according to the present invention, two 1-octanol/phosphate buffer solvent systems in 96 deep well plate, LC/MS
# Assay type: physicochemical
# reported conditions: 1-octanol:phosphate buffer pH 7.4 at 5:95 and 50:50, 25° C., 3 hours shaking, read-out: LogD Inventive determination method (Example)
readout label: logD

Bench note: what logD did CCCN(CCC)S(=O)(=O)c1ccc(C(=O)O)cc1 show?
0

I. Cc1ccc(-c2cc(C(F)(F)F)nn2-c2ccc(S(N)(=O)=O)cc2)cc1
II. CC(CCc1ccccc1)NCC(O)c1ccc(O)c(C(N)=O)c1 (stereo not shown)
Kindly compare I with II and tell me which has the lower logD figure. Identify your pick by its label.
II
(II: 0.9, I: 4.5)

A. CCc1ccc(CCOc2ccc(CC3SC(=O)NC3=O)cc2)nc1 (stereo not shown)
B. CCOc1ccccc1OCCN[C@H](C)Cc1ccc(OC)c(S(N)(=O)=O)c1
C. NC(=O)N1c2ccccc2C=Cc2ccccc21 [Carbamazepine]
// sort entries: logD, high to low Reply format: the labels, ordered as requested.
A, C, B
(A: 3.2, C: 2, B: 0.8)

* * *

# protocol summary: Lipophilicity determination by a shake-flask method (Comparative Example), 1-octanol/phosphate buffer pH 7.4, LC/MS
# Type: physicochemical
# reported conditions: 1-octanol / phosphate buffer solution pH 7.4, shaken 10 minutes
readout label: logD

Bench note: what logD did OCCN1CCN(CCCN2c3ccccc3Sc3ccc(Cl)cc32)CC1 show?
3.8

a. CCc1ccc(CCOc2ccc(CC3SC(=O)NC3=O)cc2)nc1 (stereo not drawn)
b. Cc1ccc(-c2cc(C(F)(F)F)nn2-c2ccc(S(N)(=O)=O)cc2)cc1
Please tell me which of the two, a or b , has the higher reported logD value. Identify your pick by its label.
b

* * *

# protocol summary: Lipophilicity determination by a shake-flask method (Comparative Example), 1-octanol/phosphate buffer pH 7.4, LC/MS
# Type: physicochemical
# reported conditions: 1-octanol / phosphate buffer solution pH 7.4, shaken 10 minutes
readout label: logD

Bench note: what logD did CC(CCc1ccccc1)NCC(O)c1ccc(O)c(C(N)=O)c1 (centres unmarked) show?
1

Bench note: what logD did COc1ccc2c(c1)c(CC(=O)O)c(C)n2C(=O)c1ccc(Cl)cc1 show?
1.2

1. CCCN(CCC)S(=O)(=O)c1ccc(C(=O)O)cc1
2. CCOc1ccccc1OCCN[C@H](C)Cc1ccc(OC)c(S(N)(=O)=O)c1
3. NC(=O)N1c2ccccc2C=Cc2ccccc21 [Carbamazepine]
// sort entries: logD, high to low Reply format: the labels, ordered as requested.
3, 2, 1
(3: 1.8, 2: 0.8, 1: -0.3)
